The origin of these recorded values is ChEMBL document CHEMBL1126024.

# ASSAY COMMENT: Solubility (phosphate buffered saline)
# Assay type: physicochemical
# CONDITION: read-out: S
REPORTED PROPERTY: solubility (µM)
// units = µM; emit number, no label

Solved entries (count: 3):
CCCCCC(=O)O[C@H]1[C@H](OC(=O)CCCCC)[C@@H](CO)O[C@H]1n1cnc2c(OC)ncnc21    140
COc1ncnc2c1ncn2[C@@H]1O[C@H](CO)[C@@H](O)[C@@H]1O    49800
CCC(=O)OC[C@H]1O[C@@H](n2cnc3c(OC)ncnc32)[C@@H](OC(=O)CC)[C@@H]1OC(=O)CC    3550

Qu. Given COc1ncnc2c1ncn2[C@@H]1O[C@H](COC(=O)COc2ccccc2)[C@@H](OC(=O)COc2ccccc2)[C@@H]1O , state its recorded solubility.
Ans. 58

Qu. // returns reported solubility for input CCCCC(=O)OC[C@H]1O[C@@H](n2cnc3c(OC)ncnc32)[C@@H](O)[C@@H]1OC(=O)CCCC
Ans. 78

###

# ASSAY COMMENT: Solubility (phosphate buffered saline)
# Assay type: physicochemical
# CONDITION: read-out: S
Everything with solubility lower than 200 µM is Not fulfilled; everything else, including exactly 200 µM, is Fulfilled.

As a guide, the following entries are already answered.
COc1ncnc2c1ncn2[C@@H]1O[C@H](COC(=O)Cc2ccccc2)[C@@H](OC(=O)Cc2ccccc2)[C@@H]1OC(=O)Cc1ccccc1    Not fulfilled
COc1ncnc2c1ncn2[C@@H]1O[C@H](CO)[C@@H](OC(=O)c2ccccc2)[C@@H]1OC(=O)c1ccccc1    Not fulfilled
COc1ncnc2c1ncn2[C@@H]1O[C@H](COC(=O)Cc2ccccc2)[C@@H](OC(=O)Cc2ccccc2)[C@@H]1O    Not fulfilled
COc1ncnc2c1ncn2[C@@H]1O[C@H](COS(C)(=O)=O)[C@@H](OS(C)(=O)=O)[C@@H]1OS(C)(=O)=O    Fulfilled
COc1ncnc2c1ncn2[C@@H]1O[C@H](COC(=O)c2ccccc2)[C@@H](O)[C@@H]1OC(=O)c1ccccc1    Not fulfilled

Consider now this further compound.
Qu. Exam item: decide whether the reported solubility for CCCC(=O)O[C@H]1[C@H](OC(=O)CCC)[C@@H](CO)O[C@H]1n1cnc2c(OC)ncnc21 is at least 200 µM.
Ans. Fulfilled

###

Catalogue of Urinary recovery values
# Species on record: Rattus norvegicus
# ASSAY COMMENT: Ester prodrugs: recovery of parent compound in rat urine
# Format: ADME, organism-based
# CONDITION: in vivo
Could you give me the number in %? Just the number is fine.

The cases that follow already have their Urinary recovery on record.
CCC(=O)OC[C@H]1O[C@@H](n2cnc3c(OC)ncnc32)[C@@H](OC(=O)CC)[C@@H]1OC(=O)CC    0.8
COc1ccc(C(=O)OC[C@H]2O[C@@H](n3cnc4c(OC)ncnc43)[C@@H](OC(=O)c3ccc(OC)cc3)[C@@H]2OC(=O)c2ccc(OC)cc2)cc1    4.1
CCC(=O)OC[C@H]1O[C@@H](n2cnc3c(OC)ncnc32)[C@@H](O)[C@@H]1OC(=O)CC    11

Qu. Fill blank: measured Urinary recovery of the compound COc1ncnc2c1ncn2[C@@H]1O[C@H](COC(=O)c2ccc(C)cc2)[C@@H](OC(=O)c2ccc(C)cc2)[C@@H]1OC(=O)c1ccc(C)cc1 is ____.
Ans. 5.6

###

# ASSAY COMMENT: Solubility (phosphate buffered saline)
# Format: physicochemical
# CONDITION: read-out: S
REPORTED PROPERTY: solubility (µM)
Your answer should be a plain number; it is taken to be in µM.

// known answers, use as guide
COc1ccc(C(=O)O[C@H]2[C@H](OC(=O)c3ccc(OC)cc3)[C@@H](CO)O[C@H]2n2cnc3c(OC)ncnc32)cc1    5
COc1ncnc2c1ncn2[C@@H]1O[C@H](COC(=O)c2ccccc2)[C@@H](OC(=O)c2ccccc2)[C@@H]1OC(=O)c1ccccc1    8

Next molecule, please.
Qu. Suppose we examine the molecule COc1ncnc2c1ncn2[C@@H]1O[C@H](COS(=O)(=O)c2ccc(C)cc2)[C@@H](OS(=O)(=O)c2ccc(C)cc2)[C@@H]1OS(=O)(=O)c1ccc(C)cc1 ; what solubility value has been reported?
Ans. 5

###

# ASSAY COMMENT: Solubility (phosphate buffered saline)
# Format: physicochemical
# CONDITION: read-out: S
REPORTED PROPERTY: solubility (µM)
Answer format: numeric, µM implied, no suffix.

Below, each entry is followed by its recorded solubility result.
COc1ncnc2c1ncn2[C@@H]1O[C@H](CO)[C@@H](OC(=O)Cc2ccccc2)[C@@H]1OC(=O)Cc1ccccc1    204
CCCCCCC(=O)O[C@H]1[C@H](OC(=O)CCCCCC)[C@@H](CO)O[C@H]1n1cnc2c(OC)ncnc21    30
CCCC(=O)OC[C@H]1O[C@@H](n2cnc3c(OC)ncnc32)[C@@H](O)[C@@H]1OC(=O)CCC    422
COc1ncnc2c1ncn2[C@@H]1O[C@H](COC(=O)C(C)C)[C@@H](O)[C@@H]1OC(=O)C(C)C    9110
CCCCC(=O)OC[C@H]1O[C@@H](n2cnc3c(OC)ncnc32)[C@@H](OC(=O)CCCC)[C@@H]1OC(=O)CCCC    21
COc1ncnc2c1ncn2[C@@H]1O[C@H](COC(C)=O)[C@@H](OC(C)=O)[C@@H]1O    12300
CCCCC(=O)OC[C@H]1O[C@@H](n2cnc3c(OC)ncnc32)[C@@H](OC(=O)CCCC)[C@@H]1O    1300
COc1ncnc2c1ncn2[C@@H]1O[C@H](CO)[C@@H](OC(=O)C(C)C)[C@@H]1OC(=O)C(C)C    3300

Qu. I am curious: what solubility value has been reported for COc1ncnc2c1ncn2[C@@H]1O[C@H](CO)[C@@H](OC(C)=O)[C@@H]1OC(C)=O ?
Ans. 172000

Qu. Could you share which solubility value was measured for COc1ncnc2c1ncn2[C@@H]1O[C@H](CO)[C@@H](OC(=O)c2ccc(C)cc2)[C@@H]1OC(=O)c1ccc(C)cc1 ?
Ans. 5

Qu. Recorded solubility for COc1ncnc2c1ncn2[C@@H]1O[C@H](COC(C)=O)[C@@H](O)[C@@H]1OC(C)=O , please?
Ans. 7100

Qu. Bench note: what solubility did COc1ncnc2c1ncn2[C@@H]1O[C@H](COC(=O)C(C)(C)C)[C@@H](OC(=O)C(C)(C)C)[C@@H]1O show?
Ans. 32

Qu. Value lookup for solubility; key = COc1ncnc2c1ncn2[C@@H]1O[C@H](CO)[C@@H](OC(=O)C(C)(C)C)[C@@H]1OC(=O)C(C)(C)C
Ans. 640

Qu. Entry CCCCCCCC(=O)O[C@H]1[C@H](OC(=O)CCCCCCC)[C@@H](CO)O[C@H]1n1cnc2c(OC)ncnc21 has what solubility?
Ans. 36

Qu. I am curious: what solubility value has been reported for CCC(=O)OC[C@H]1O[C@@H](n2cnc3c(OC)ncnc32)[C@@H](O)[C@@H]1OC(=O)CC ?
Ans. 2390

###

# ASSAY COMMENT: Solubility (phosphate buffered saline)
# Assay type: physicochemical
# CONDITION: read-out: S
Below is a list of entries, each paired with its recorded solubility value.

Recorded results for 2 compounds are shown here.
COc1ccc(C(=O)OC[C@H]2O[C@@H](n3cnc4c(OC)ncnc43)[C@@H](OC(=O)c3ccc(OC)cc3)[C@@H]2OC(=O)c2ccc(OC)cc2)cc1    < 5 µM
COc1ncnc2c1ncn2[C@@H]1O[C@H](COC(=O)c2ccc(C)cc2)[C@@H](OC(=O)c2ccc(C)cc2)[C@@H]1OC(=O)c1ccc(C)cc1    < 5 µM

Now look at this entry.
Qu. // lookup solubility for COc1ncnc2c1ncn2[C@@H]1O[C@H](COC(=O)c2ccc(Cl)cc2)[C@@H](OC(=O)c2ccc(Cl)cc2)[C@@H]1OC(=O)c1ccc(Cl)cc1
Ans. < 5 µM
